Provenance of the data: the supplement of paper PMC10065799

Reported phosphorylation enrichment values follow for various sequences
# tgt: Jak2 (UniProt O60674)
# Sequence (O60674 whole entry, looked up): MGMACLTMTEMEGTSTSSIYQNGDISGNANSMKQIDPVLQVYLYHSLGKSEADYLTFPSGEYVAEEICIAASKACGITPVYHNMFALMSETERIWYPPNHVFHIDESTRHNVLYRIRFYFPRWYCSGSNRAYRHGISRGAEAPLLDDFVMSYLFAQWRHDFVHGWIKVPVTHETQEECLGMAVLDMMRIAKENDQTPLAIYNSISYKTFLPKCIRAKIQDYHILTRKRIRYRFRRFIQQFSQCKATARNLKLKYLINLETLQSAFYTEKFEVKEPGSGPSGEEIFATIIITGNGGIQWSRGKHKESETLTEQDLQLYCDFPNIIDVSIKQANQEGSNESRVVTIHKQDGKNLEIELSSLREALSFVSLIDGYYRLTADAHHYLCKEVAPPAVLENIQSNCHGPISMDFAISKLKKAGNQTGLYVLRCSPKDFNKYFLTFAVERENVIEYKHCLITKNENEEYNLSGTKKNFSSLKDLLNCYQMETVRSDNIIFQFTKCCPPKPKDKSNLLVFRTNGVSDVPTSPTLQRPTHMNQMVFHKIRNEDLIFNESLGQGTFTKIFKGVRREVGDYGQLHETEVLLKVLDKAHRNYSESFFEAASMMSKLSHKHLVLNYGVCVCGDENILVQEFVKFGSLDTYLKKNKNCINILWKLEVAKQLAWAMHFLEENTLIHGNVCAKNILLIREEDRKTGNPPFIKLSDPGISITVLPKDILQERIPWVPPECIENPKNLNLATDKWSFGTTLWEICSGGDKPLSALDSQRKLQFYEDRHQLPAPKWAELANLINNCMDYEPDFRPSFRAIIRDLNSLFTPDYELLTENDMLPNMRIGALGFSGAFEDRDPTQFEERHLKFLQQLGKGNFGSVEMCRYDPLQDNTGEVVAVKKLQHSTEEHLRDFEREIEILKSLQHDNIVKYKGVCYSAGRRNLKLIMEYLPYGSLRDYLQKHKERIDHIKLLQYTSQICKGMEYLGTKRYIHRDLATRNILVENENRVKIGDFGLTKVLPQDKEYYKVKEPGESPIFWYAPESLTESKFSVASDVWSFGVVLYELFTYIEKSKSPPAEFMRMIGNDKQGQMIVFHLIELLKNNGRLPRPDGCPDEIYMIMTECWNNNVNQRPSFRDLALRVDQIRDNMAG
# run.description: phosphorylation enrichment, bacterial display (enrichment ratio); higher = better substrate or ligand; peptides without Tyr show the background;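 further: 11-residue human phosphosite peptides and single-mutation variants displayed on the E. coli surface, counted by deep sequencing, each peptide's frequency after selection divided by its frequency in the unselected input library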;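 further: frequency after pTyr selection over input frequency; kinase dosed for 20-30% of maximal phosphorylation in three min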
Kindly provide the number alone.

               residue_sequence  test_result
0  TEAEPYFRSLR [NPHS1_Y1138_YF]        0.843
1       RNNIEYVRDIG [MUSK_Y577]        0.436

Record lookup: for Jak2 (UniProt O60674), what phosphorylation enrichment belongs to RPGGRYPVARR [SHANK3_Y1569_S1566G] ?
0.478

Ok, now GRRGQYVMLSE [TTC7A_Y396]
0.573

Ok, now HRGYLYLAIEY [TEK_Y899]
1.03

Ok, now KMGNIYRTEYG [MRPL3_Y265]
0.577

Ok, now FADIAYNFRHG [PAH_Y166_YF]
0.734

Ok, now SSWPDYVRPLP [HSPB1_Y54_G53D]
7.67

Ok, now FLAVGYHKPYI [IDS_Y225_H229Y]
1.02

Ok, now KKCTTYIDCDL [ASPA_Y64_R63T]
0.81

Ok, now RIRRRYCQVLN [IQCF1_Y144]
0.614

Ok, now KLIETCFSKNY [PLP1_Y50_Y50C]
1.13

Ok, now CKLYQYYLDHL [ATRX_Y1849]
1.54

Ok, now EACPSYSHVVL [CHST6_Y168_R166P]
0.527
